Ref: patent US20250346660A1

Molecular target: T1, Recombinant Human IL-23 (human, UniProt Q9NPF7 20-189; P29460 23-328)
T1 sequence (looked up) 1: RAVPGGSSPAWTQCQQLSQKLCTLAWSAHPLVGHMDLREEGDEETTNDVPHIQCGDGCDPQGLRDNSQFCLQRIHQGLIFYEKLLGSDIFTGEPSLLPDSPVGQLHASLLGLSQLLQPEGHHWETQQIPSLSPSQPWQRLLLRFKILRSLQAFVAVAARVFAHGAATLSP
T1 sequence (looked up) 2: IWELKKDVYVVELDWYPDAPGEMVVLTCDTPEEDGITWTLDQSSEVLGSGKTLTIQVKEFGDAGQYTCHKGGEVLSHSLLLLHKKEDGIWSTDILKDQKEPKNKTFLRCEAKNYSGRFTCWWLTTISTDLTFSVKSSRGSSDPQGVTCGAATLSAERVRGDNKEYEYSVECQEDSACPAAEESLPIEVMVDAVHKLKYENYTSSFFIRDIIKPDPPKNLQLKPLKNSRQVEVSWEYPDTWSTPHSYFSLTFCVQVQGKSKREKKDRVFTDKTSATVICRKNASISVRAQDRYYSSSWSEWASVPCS
Test: cell-based or functional assay
readoutKind: Relative IC50, inhibition of IL-23-induced release of IL-17 from human PBMCs

Would you kindly share the measured Relative IC50, inhibition of IL-23-induced release of IL-17 from human PBMCs for Reference Antibody 1 (antibody, human IgG1, kappa, L234A L235A, V domains shown, also called anti-human IL-23p19 antibody; parental antibody) VH: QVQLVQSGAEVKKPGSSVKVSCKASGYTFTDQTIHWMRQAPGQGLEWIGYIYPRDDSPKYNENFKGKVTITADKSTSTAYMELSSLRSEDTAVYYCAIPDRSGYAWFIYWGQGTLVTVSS VL: DIQMTQSPSSLSASVGDRVTITCKASRDVAIAVAWYQQKPGKVPKLLIYWASTRHTGVPSRFSGSGSRTDFTLTISSLQPEDVADYFCHQYSSYPFTFGSGTKLEIKR ?
1 relative to Reference Antibody 1
